protocol.notes: recombinant UMI read abundance after kanamycin selection (control-corrected) (log10(CPM+1)); higher = more efficient recombination; extreme values may be limits of the assay; sequences stand for … in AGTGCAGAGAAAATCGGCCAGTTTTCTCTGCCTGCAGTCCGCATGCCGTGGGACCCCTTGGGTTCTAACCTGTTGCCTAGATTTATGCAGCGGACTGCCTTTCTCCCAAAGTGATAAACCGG…AGGTTGGTTTCACT; site = the 11-nt donor;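 further: IS621 bridge recombinase in Escherichia coli cells against a fixed T5 target plasmid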
Recorded measurements of recombinant UMI read abundance (log10), one per entry
property.measured: recombinant UMI read abundance (log10)

>>> observed("AAAAGACCATGGACCGGTTTTCCCGGTAATCCGTATTTGTA (site AAAAGACCTTA)")
0
>>> observed("GGCAAACCATGGACCGGTTTTCCCGGTAATCCGTATTTGAA (site GGCAAACCTTT)")
0
>>> observed("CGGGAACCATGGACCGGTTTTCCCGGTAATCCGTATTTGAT (site CGGAAACCTAT)")
0
>>> observed("GCTCCAACATGGACCGGTTTTCCCGGTAATCCGTATTTGTA (site GTTCCAACTTA)")
0.481
>>> observed("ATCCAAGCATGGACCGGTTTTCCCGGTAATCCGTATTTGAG (site ATCCAAGCTCA)")
0.209
>>> observed("ACAGCATCATGGACCGGTTTTCCCGGTAATCCGTATTTGCA (site ACAGGATCTTG)")
0
>>> observed("TCCACCGCATGGACCGGTTTTCCCGGTAATCCGTATTTGGG (site TCCACCGCTCC)")
0.00928
>>> observed("CAGGGCCCATGGACCGGTTTTCCCGGTAATCCGTATTTGTT (site CATGGCCCTAA)")
0.00426
>>> observed("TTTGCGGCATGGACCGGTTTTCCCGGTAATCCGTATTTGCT (site TTTGCGGCTAG)")
0.75
>>> observed("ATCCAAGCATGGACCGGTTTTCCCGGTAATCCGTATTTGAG (site ACCCAAGCTCT)")
0.646
>>> observed("TGAACACCATGGACCGGTTTTCCCGGTAATCCGTATTTGCA (site TGAACACCTTG)")
0.302
>>> observed("CACTTGGCATGGACCGGTTTTCCCGGTAATCCGTATTTGTA (site CACTTGGCTTC)")
0.00904
>>> observed("GATCCTACATGGACCGGTTTTCCCGGTAATCCGTATTTGCT (site GATCCTACTAG)")
0.00962
>>> observed("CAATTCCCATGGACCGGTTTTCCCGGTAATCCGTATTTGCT (site CAACTCCCTAG)")
1.16
>>> observed("CTGGGAACATGGACCGGTTTTCCCGGTAATCCGTATTTGCA (site CTGGTAACTTG)")
0.262
>>> observed("TGTGCAGCATGGACCGGTTTTCCCGGTAATCCGTATTTGGT (site TGTGCAGCTAC)")
0.0104
>>> observed("TCAAATTCATGGACCGGTTTTCCCGGTAATCCGTATTTGCC (site TCAAATTCTGG)")
0.558
>>> observed("AGGAAGGCATGGACCGGTTTTCCCGGTAATCCGTATTTGCT (site AGTAAGGCTAG)")
1.3
